# Test system: Human papillomavirus type 1a E7 protein (residues 1-88)
# Method notes: HPV1a E7 small-molecule binders, primary screen, biochemical, small-molecule microarray, residues 1-88, 635 nm (AID 1129)
# Condition set: small-molecule microarray binding, fluorescence 635 nm; higher = more signal
Catalogue of molecules with associated composite z-score
Reply with just the number.

Solved entries (count: 2):
Line notation: COC(=O)[C@@]1(Cc2ccc(F)cc2)[C@H]2c3cc(C(=O)N(C)C)n(CCc4ccccn4)c3C[C@H]2CN1C(=O)c1ccccc1
composite z-score: 1.25

Line notation: CC(C)CNC(=O)[C@@]1(c2ccc([N+](=O)[O-])cc2)CC(=O)N(CC23CC4CC(CC(C4)C2)C3)[C@@H]1c1ccc(CO)cc1I
composite z-score: 1.14

IN: Identify the reported composite z-score for the following entry. COCCOC(=O)N1C(=O)[C@@]2(c3cc(C#CCC(C(=O)OC)C(=O)OC)ccc31)[C@H](c1ccccc1OCCO)N1[C@H](c3ccccc3)[C@H](c3ccccc3)OC(=O)[C@H]1[C@@H]2C(N)=O
OUT: 1.19

IN: Identify the reported composite z-score for the following entry. Cc1ccc(S[C@]2(C(=O)NC3CC3)CC(=O)N(C3CCCCC3)[C@@H]2c2ccc(CO)cc2I)cc1
OUT: 1.21

IN: Identify the reported composite z-score for the following entry. O=C1C[C@]2(c3ccc([N+](=O)[O-])cc3)C(=O)N(CC(F)(F)F)c3cc(CO)ccc3[C@H]2N1CC12CC3CC(CC(C3)C1)C2
OUT: -0.369

IN: Identify the reported composite z-score for the following entry. COc1ccc(C#Cc2ccc3c(c2)[C@]2(C(=O)N3)[C@H](c3ccc(O)cc3)N3[C@H](c4ccccc4)[C@H](c4ccccc4)OC(=O)[C@H]3[C@@H]2C(=O)NC[C@H](O)c2ccccc2)cc1
OUT: 1.21
